# Tested on: Colon cancer organoid
# assay text: Optimized Dual-Glo assay to identify co-culture induced drug vulnerabilities using donated chemical probes and chemogenomics kinase set in O14 CRC organoid and F14 CAF mono and co-culture. […] Cell viability is reported both mono and co-culture models.
# Format: functional, Homo sapiens
# Parameters: dose or concentration left out as unconfirmed
# experimental parameters: Culture type Mono-Culture; Transduced with Renilla-dsRed lentivirus
Square brackets hold non-standard residues; d marks the D form. Peptide text beside a SMILES is read from it. Arg(Me) = CNC(=N)NCCC[C@H](N)C(=O)O; d3Pal = N[C@H](Cc1cccnc1)C(=O)O; azaGly = NNC(=O)O
Below, each entry is listed with its recorded Cell Viability.

[
  {
    "compound": "O=C(CNCc1cc2ccccc2[nH]1)N[C@H]1CC[C@@H](c2nc3ccccc3[nH]2)CC1",
    "Cell Viability [%]": 104.778
  },
  {
    "compound": "Cc1ccccc1Oc1cc(-n2c(=O)cc(C(F)(F)F)[nH]c2=O)c2ccccc2c1Cl",
    "Cell Viability [%]": 102.99
  },
  {
    "compound": "COc1cc(Nc2ccnc3ccc(Br)cc23)cc(OC)c1OC",
    "Cell Viability [%]": 94.0266
  },
  {
    "compound": "CN1CCN(c2ccnc(NCCc3ccccc3)n2)CC1 [TP-040n]",
    "Cell Viability [%]": 101.671
  },
  {
    "compound": "O=C(NOC[C@H](O)CO)c1ccc(F)c(F)c1Nc1ccc(I)cc1F",
    "Cell Viability [%]": 25.7095
  },
  {
    "compound": "C[C@@H]1CCc2ncc(F)cc2[C@H]2CCCN2c2ccn3ncc(c3n2)C(=O)N1",
    "Cell Viability [%]": 100.351
  },
  {
    "compound": "Cn1cc(-c2ccc3occ(-c4cccc(-c5ccncc5)c4)c3n2)cn1",
    "Cell Viability [%]": 81.4959
  },
  {
    "compound": "CC(=O)Nc1c(F)cc(C(=O)N[C@H]2CC[C@H](O)CC2)cc1O[C@@H](C)c1ccccc1",
    "Cell Viability [%]": 138.141
  },
  {
    "compound": "CC[C@H](CC(=O)O)n1c(=O)c2ncccc2n(Cc2cn(C)c3cc(C)cc(C)c23)c1=O",
    "Cell Viability [%]": 91.8874
  },
  {
    "compound": "Cc1noc(C)c1-c1cnc2c(-c3ccc(C(=O)O)cc3)cn([C@@H](C)c3ccccn3)c2c1",
    "Cell Viability [%]": 207.472
  },
  {
    "compound": "Cc1c(C(=O)Nc2ccc(Oc3ccnc4[nH]cc(-c5ccccc5)c34)c(F)c2)c(=O)n(-c2ccc(F)cc2)n1C",
    "Cell Viability [%]": 25.4653
  },
  {
    "compound": "COc1ccccc1-c1cc(Nc2cccc(CS(N)(=O)=O)c2)ncn1",
    "Cell Viability [%]": 77.4194
  },
  {
    "compound": "Cc1cn(-c2cc(NC(=O)c3ccc4c(c3)CN(c3cncnc3)C[C@@H]4C)cc(C(F)(F)F)c2)cn1",
    "Cell Viability [%]": 97.9875
  },
  {
    "compound": "CNC(=N)NCCC[C@H](NC(=O)[C@H](CC(C)C)NC(=O)NNC(=O)[C@H](Cc1ccccc1)NC(=O)[C@H](CO)NC(=O)[C@H](CC(N)=O)NC(=O)[C@@H](Cc1cccnc1)NC(=O)[C@H](N)Cc1ccc(O)cc1)C(=O)NCC(N)=O [KISS1-543] (H-[dY][d3Pal]NSF[azaGly]L[Arg(Me)]G-NH2)",
    "Cell Viability [%]": 78.975
  },
  {
    "compound": "C=CC(=O)N1CCC([C@@H]2CCNc3c(C(N)=O)c(-c4ccc(Oc5ccccc5)cc4)nn32)CC1",
    "Cell Viability [%]": 123.54
  },
  {
    "compound": "CC1CCN(c2ccnc(NCc3cn(C)cn3)n2)CC1",
    "Cell Viability [%]": 94.952
  },
  {
    "compound": "Cn1cc(-c2ccc3occ(-c4ccccc4-c4ccccc4)c3n2)cn1",
    "Cell Viability [%]": 96.0811
  },
  {
    "compound": "O=C(N[C@H]1CCCCC/C=C\\C2C[C@@]2(C(=O)O)NC(=O)[C@@H]2C[C@@H](Oc3ccncc3)CN2C1=O)OC1CCCC1 (some centres undefined)",
    "Cell Viability [%]": 89.8487
  },
  {
    "compound": "CN(C)CCCOc1ccc(-c2cc(NCCCn3cccn3)nc(S(C)(=O)=O)n2)cc1",
    "Cell Viability [%]": 94.6282
  },
  {
    "compound": "CC(C)(C#Cc1ccc(NC(=O)COc2ccccc2C(=O)c2ccccc2)c(Cl)c1)C(=O)O",
    "Cell Viability [%]": 103.818
  },
  {
    "compound": "CCOC(=O)Nc1cc(-c2ccc(C)c(NS(C)(=O)=O)c2)nn2c(C)nnc12",
    "Cell Viability [%]": 176.186
  },
  {
    "compound": "CC(=O)Nc1c(C(C)=O)c(=O)n(C)c2nc(-c3ccc(Cl)cc3Cl)c(-c3ccc(Cl)cc3)cc12",
    "Cell Viability [%]": 99.5027
  },
  {
    "compound": "Cl.O=C(O)c1cc(-c2ccc(C3CCNCC3)cc2)c2ccc(-c3ccc(C(F)(F)F)cc3)cc2c1",
    "Cell Viability [%]": 99.5367
  },
  {
    "compound": "Clc1cccc(-c2nnnn2Cc2cccnc2)c1Cl",
    "Cell Viability [%]": 81.6635
  },
  {
    "compound": "FC(F)(F)c1ccc2c(c1)nc(-c1cccnc1)n2C1CC1 [MSD-CYP11B2-Negative-control]",
    "Cell Viability [%]": 99.4361
  },
  {
    "compound": "O=C1NC(c2ccccn2)Sc2ccccc21 (centres undefined)",
    "Cell Viability [%]": 104.244
  },
  {
    "compound": "CCn1cc(-c2cccc(C(F)(F)F)c2)c2sc(C(=N)NC3CCS(=O)(=O)CC3)cc2c1=O",
    "Cell Viability [%]": 135.353
  },
  {
    "compound": "Cl.Cl.Cl.c1ccc(N2CCN(Cc3nc4ccccc4[nH]3)CC2)nc1",
    "Cell Viability [%]": 99.3304
  },
  {
    "compound": "COc1cc2ncn(-c3cc(OCc4ccccc4C(F)(F)F)c(C(N)=O)s3)c2cc1OC [GW843682X]",
    "Cell Viability [%]": 105.344
  },
  {
    "compound": "CN(C)C(=O)c1cc2cnc(Nc3ccc(N4CCNCC4)cn3)nc2n1C1CCCC1",
    "Cell Viability [%]": 96.4403
  },
  {
    "compound": "OCCn1cc(-c2ccc3c(c2)CCC3=NO)c(-c2ccncc2)n1",
    "Cell Viability [%]": 118.266
  },
  {
    "compound": "COc1ccccc1S(=O)(=O)Nc1ccc2c(c1)CN(C)C(=O)N2",
    "Cell Viability [%]": 99.3977
  },
  {
    "compound": "CO[C@H]1CNC[C@@H](OCC2CCC(F)(F)CC2)[C@@H]1Nc1ncc(-c2cncc(C)c2)c2cc(C)c(=O)[nH]c12",
    "Cell Viability [%]": 100.555
  },
  {
    "compound": "COc1ncc(F)cc1CNc1ccc(Cc2c[nH]c3ncc(C)cc23)c(F)n1",
    "Cell Viability [%]": 44.2586
  }
]
